List of Test G disease control rating values.
System: Septoria tritici
Experiment: Test G: wheat leaf blotch on wheat seedlings, sprayed the day before inoculation, visual disease rating
Type: in vivo
Conditions: 200 ppm; 100 = 100% disease control, 0 = no control relative to controls
Endpoint: Test G disease control rating (%)

- Structure smiles string: "COc1cc(F)c(-n2c(Cl)nc(CCl)c2-c2cccc(F)c2)c(F)c1"
  Target: "Septoria tritici"
  Reported value: 95
- Structure smiles string: "Cc1nc(Cl)c(-c2c(F)ccc(F)c2F)n1-c1ccc(F)cc1"
  Target: "Septoria tritici"
  Reported value: 100
- Structure smiles string: "COc1cc(F)c(-c2c(Br)ncn2-c2ccc(C)nc2)c(F)c1"
  Target: "Septoria tritici"
  Reported value: 98
- Structure smiles string: "COc1ccc(Cl)c(-c2c(Cl)nc(Br)n2-c2ccc(Cl)cc2)c1F"
  Target: "Septoria tritici"
  Reported value: 98
- Structure smiles string: "CCOc1cc(F)c(-c2c(Cl)ncn2-c2cccc(F)c2)c(F)c1"
  Target: "Septoria tritici"
  Reported value: 99
- Structure smiles string: "COc1cc(F)c(-c2c(Cl)ncn2-c2ccc(F)c(F)c2)c(F)c1"
  Target: "Septoria tritici"
  Reported value: 95
- Structure smiles string: "Cc1nc(Br)c(-c2ccc(Cl)c(F)c2)n1-c1ccc(F)cc1Cl"
  Target: "Septoria tritici"
  Reported value: 92
- Structure smiles string: "COc1cc(F)c(-c2c(C)nn(C)c2-c2ccc(Cl)c(F)c2)c(F)c1"
  Target: "Septoria tritici"
  Reported value: 99
- Structure smiles string: "Fc1ccc(-n2cnc(Cl)c2-c2c(F)ccc(F)c2F)cc1"
  Target: "Septoria tritici"
  Reported value: 85
- Structure smiles string: "Cc1nc(Cl)n(-c2ccc(Cl)c(F)c2)c1-c1scnc1Cl"
  Target: "Septoria tritici"
  Reported value: 91
- Structure smiles string: "Fc1cc(F)c(-c2c(Cl)nc(Cl)n2-c2cccc(OC(F)(F)F)c2)c(F)c1"
  Target: "Septoria tritici"
  Reported value: 9
- Structure smiles string: "CNc1nc(Cl)c(-c2c(F)cc(OC)cc2F)n1-c1ccc(Cl)cc1"
  Target: "Septoria tritici"
  Reported value: 99
- Structure smiles string: "COc1ccc(F)c(-c2c(Cl)nc(Cl)n2-c2cccc(C)c2)c1F"
  Target: "Septoria tritici"
  Reported value: 94
- Structure smiles string: "COc1ccc(-n2c(Br)nc(Br)c2-c2c(F)cccc2F)cn1"
  Target: "Septoria tritici"
  Reported value: 99
- Structure smiles string: "COc1cc(F)c(-c2c(Cl)nc(Br)n2-c2cccc(OC(F)F)c2)c(F)c1"
  Target: "Septoria tritici"
  Reported value: 99
- Structure smiles string: "Fc1cc(Cn2c(Br)nc(Cl)c2-c2c(F)cccc2F)ccc1Cl"
  Target: "Septoria tritici"
  Reported value: 97
- Structure smiles string: "COc1cc(F)c(-c2c(Cl)nc(Cl)n2-c2cccnc2Cl)c(F)c1"
  Target: "Septoria tritici"
  Reported value: 100
- Structure smiles string: "Fc1cccc(-n2cnc(Cl)c2-c2c(F)cc(F)cc2F)c1"
  Target: "Septoria tritici"
  Reported value: 86
- Structure smiles string: "COc1cc(F)c(-c2c(Cl)nc(Cl)n2-c2ccc(C)cc2)c(F)c1Cl"
  Target: "Septoria tritici"
  Reported value: 100
- Structure smiles string: "Fc1cc(-n2cnc(Cl)c2-c2c(F)cncc2F)ccc1Cl"
  Target: "Septoria tritici"
  Reported value: 94
- Structure smiles string: "Cc1ncc(Cc2c(F)cc(F)cc2F)n1-c1c(Cl)cccc1Cl"
  Target: "Septoria tritici"
  Reported value: 90
- Structure smiles string: "COc1ccc(F)c(-c2c(Cl)nc(Br)n2-c2ccc(C)c(F)c2)c1F"
  Target: "Septoria tritici"
  Reported value: 98
- Structure smiles string: "CCOc1cc(F)c(-c2c(Cl)ncn2-c2ccc(C)cc2)c(F)c1"
  Target: "Septoria tritici"
  Reported value: 97

Values from patent US20110045101A1
